system: testosterone (T) production in NCI-H295R cells (Homo sapiens, UniProt P05108)
Construct: testosterone measured by LC-MS/MS as downstream steroid
assay.remarks: H295R Steroid Biosynthesis Inhibition Assay - inhibition of testosterone (T) production in NCI-H295R cells
condition.notes: 48 h, LC-MS/MS, read-out: Inh. of T IC50
Listed next: entries and their corresponding IC50.

Solved entries:
molecule	system	IC50
O=c1cc(CN2Cc3ccccc3C2)oc2cc(C3CCC(F)(F)CC3)oc12 [Compound 26]	testosterone (T) production in NCI-H295R cells (Homo sapiens, UniProt P05108)	≥ 101 nM
O=C(C1CC1)N1CCC(c2cnc3cc(CN4Cc5ccccc5C4)ccc3n2)CC1 [Compound 102]	testosterone (T) production in NCI-H295R cells (Homo sapiens, UniProt P05108)	41 to 100 nM
CC(Oc1ccc(CN2Cc3ccccc3C2)c2cccnc12)C1CCN(S(C)(=O)=O)CC1 (centres unmarked) [Compound 11]	testosterone (T) production in NCI-H295R cells (Homo sapiens, UniProt P05108)	41 to 100 nM

Incoming: Any idea what its IC50 is? The molecule is O=S(=O)(c1ccccc1)N1CCC(c2cnc3cc(CN4Cc5ccccc5C4)ccc3n2)CC1 [Compound 98]
Outgoing: ≤ 40 nM

Incoming: Recorded IC50 for CS(=O)(=O)N1CCC(c2cc3oc(CN4Cc5ccccc5C4)cc(=O)c3o2)CC1 [Compound 14] , please?
Outgoing: ≤ 40 nM

Incoming: Name the recorded IC50 for CS(=O)(=O)N1CCC(c2ccc3cc(CN4CCn5cccc5C4)ccc3n2)CC1 [Compound 76] .
Outgoing: ≥ 101 nM

Incoming: IC50 lookup needed for CCS(=O)(=O)N1CCC(c2cnc3cc(CN4Cc5ccccc5C4)ccc3n2)CC1 [Compound 91] , thanks.
Outgoing: ≤ 40 nM

Incoming: For O=C(c1nccs1)N1CCC(c2cnc3cc(CN4Cc5ccccc5C4)ccc3n2)CC1 [Compound 109] , what is its reported IC50?
Outgoing: 41 to 100 nM

* * *

system: testosterone (T) production in NCI-H295R cells (Homo sapiens)
Construct: testosterone measured by LC-MS/MS as downstream steroid
assay.remarks: H295R Steroid Biosynthesis Inhibition Assay - inhibition of testosterone (T) production in NCI-H295R cells
condition.notes: 48 h, LC-MS/MS, read-out: Inh. of T IC50
assay.endpoint: IC50

Incoming: Endpoint output: IC50 of O=c1cc(CN2Cc3ccccc3C2)occ1OC[C@H]1CC[C@H](O)CC1 [Compound 2] . Value?
Outgoing: ≤ 40 nM

Incoming: GET /values?readout=IC50&item= O=C(NC1COC1)N1CCC(c2cnc3cc(CN4Cc5ccccc5C4)ccc3n2)CC1 [Compound 118]
Outgoing: ≥ 101 nM

Incoming: Requested field: IC50. Item: Cn1ccc(C(=O)N2CCC(c3cnc4cc(CN5Cc6ccccc6C5)ccc4n3)CC2)n1 [Compound 106]
Outgoing: ≥ 101 nM

* * *

system: testosterone (T) production in NCI-H295R cells (Homo sapiens, UniProt P05108)
Construct: testosterone measured by LC-MS/MS as downstream steroid
Sequence (P05108 40-521): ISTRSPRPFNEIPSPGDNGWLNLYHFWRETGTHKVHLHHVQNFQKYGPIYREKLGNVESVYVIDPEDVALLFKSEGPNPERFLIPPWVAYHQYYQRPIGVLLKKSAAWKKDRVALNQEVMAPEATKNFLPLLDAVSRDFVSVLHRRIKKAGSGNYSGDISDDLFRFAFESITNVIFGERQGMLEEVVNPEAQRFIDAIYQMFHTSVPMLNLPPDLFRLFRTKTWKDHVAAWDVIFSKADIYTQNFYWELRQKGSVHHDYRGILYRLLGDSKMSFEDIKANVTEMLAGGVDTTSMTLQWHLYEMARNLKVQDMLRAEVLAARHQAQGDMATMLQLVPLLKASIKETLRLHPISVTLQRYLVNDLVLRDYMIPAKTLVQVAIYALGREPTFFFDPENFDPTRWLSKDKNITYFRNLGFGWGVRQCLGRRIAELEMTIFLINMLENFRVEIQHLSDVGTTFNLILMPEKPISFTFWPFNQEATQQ
assay.remarks: H295R Steroid Biosynthesis Inhibition Assay - inhibition of testosterone (T) production in NCI-H295R cells
condition.notes: 48 h, LC-MS/MS, read-out: Inh. of T IC50
Known IC50 of a selection of compounds

Incoming: IC50 of CC(C)S(=O)(=O)N1CCC(c2cnc3cc(CN4Cc5ccccc5C4)ccc3n2)CC1 [Compound 94] on testosterone (T) production in NCI-H295R cells (Homo sapiens, UniProt P05108)?
Outgoing: ≤ 40 nM

Incoming: Form entry - test system: testosterone (T) production in NCI-H295R cells (Homo sapiens, UniProt P05108); read-out: IC50; compound: O=S(=O)(C1CCCC1)N1CCC(c2cnc3cc(CN4Cc5ccccc5C4)ccc3n2)CC1 [Compound 96]
Outgoing: ≤ 40 nM

Incoming: I'm curious: which IC50 was measured for C[C@]1(c2cc3oc(CN4Cc5ccccc5C4)cc(=O)c3o2)CC[C@H](O)CC1 [Compound 41] tested on testosterone (T) production in NCI-H295R cells (Homo sapiens, UniProt P05108)?
Outgoing: ≤ 40 nM

* * *

system: CYP11A1 (Homo sapiens)
Construct: measuring the cellular production of pregnenolone (P) catalyzed by CYP11A1
assay.remarks: H295R Steroid Biosynthesis Inhibition Assay - inhibition of pregnenolone (P) production catalyzed by CYP11A1 in NCI-H295R cells
condition.notes: 48 h, LC-MS/MS, read-out: Inh. of P IC50
IC50 reference

Incoming: # query: IC50 of entry CCOC(=O)N1CCC(c2cnc3cc(CN4Cc5ccccc5C4)ccc3n2)CC1 [Compound 111]
Outgoing: ≤ 40 nM

* * *

Measured IC50 values are reported for all entries that follow.
system: testosterone (T) production in NCI-H295R cells (Homo sapiens)
Construct: testosterone measured by LC-MS/MS as downstream steroid
assay.remarks: H295R Steroid Biosynthesis Inhibition Assay - inhibition of testosterone (T) production in NCI-H295R cells
condition.notes: 48 h, LC-MS/MS, read-out: Inh. of T IC50

Example entries begin here.
compound	system	assay.endpoint	value.measured
O=S(=O)(N1CCC(c2cnc3cc(CN4Cc5ccccc5C4)ccc3n2)CC1)C(F)(F)F	testosterone (T) production in NCI-H295R cells (Homo sapiens)	IC50	≥ 0.101 µM
CC(C)NC(=O)N1CCC(c2cnc3cc(CN4Cc5ccccc5C4)ccc3n2)CC1	testosterone (T) production in NCI-H295R cells (Homo sapiens)	IC50	≥ 0.101 µM
O=c1cc(CN2Cc3ccccc3C2)oc2cc(C3CCC(O)C3)oc12 (stereo not drawn)	testosterone (T) production in NCI-H295R cells (Homo sapiens)	IC50	0.041 to 0.1 µM
CS(=O)(=O)N1CCC(c2nc3cc(CN4Cc5ccccc5C4)ccc3s2)CC1	testosterone (T) production in NCI-H295R cells (Homo sapiens)	IC50	0.041 to 0.1 µM
CNS(=O)(=O)N1CCC(c2cnc3cc(CN4Cc5ccccc5C4)ccc3n2)CC1	testosterone (T) production in NCI-H295R cells (Homo sapiens)	IC50	≤ 0.04 µM

Incoming: Recorded IC50 for CS(=O)(=O)N1CCC(c2ncc3cc(CN4Cc5ccccc5C4)ccc3n2)CC1 , please?
Outgoing: 0.041 to 0.1 µM

Incoming: Look at this compound and give its reported IC50. CS(=O)(=O)N1CCC(c2cnc3cc(CN4Cc5ccc(OC(F)F)cc5C4)ccc3n2)CC1
Outgoing: ≤ 0.04 µM

Incoming: // returns reported IC50 for input Cc1nc(C2CCN(S(C)(=O)=O)CC2)nc2ccc(CN3Cc4ccccc4C3)cc12
Outgoing: ≤ 0.04 µM

* * *

Item-by-item account of pIC50
system: CYP11A1 (Homo sapiens)
Construct: measuring the cellular production of pregnenolone (P) catalyzed by CYP11A1; host or cells: NCI-H295R
Sequence (P05108 40-521): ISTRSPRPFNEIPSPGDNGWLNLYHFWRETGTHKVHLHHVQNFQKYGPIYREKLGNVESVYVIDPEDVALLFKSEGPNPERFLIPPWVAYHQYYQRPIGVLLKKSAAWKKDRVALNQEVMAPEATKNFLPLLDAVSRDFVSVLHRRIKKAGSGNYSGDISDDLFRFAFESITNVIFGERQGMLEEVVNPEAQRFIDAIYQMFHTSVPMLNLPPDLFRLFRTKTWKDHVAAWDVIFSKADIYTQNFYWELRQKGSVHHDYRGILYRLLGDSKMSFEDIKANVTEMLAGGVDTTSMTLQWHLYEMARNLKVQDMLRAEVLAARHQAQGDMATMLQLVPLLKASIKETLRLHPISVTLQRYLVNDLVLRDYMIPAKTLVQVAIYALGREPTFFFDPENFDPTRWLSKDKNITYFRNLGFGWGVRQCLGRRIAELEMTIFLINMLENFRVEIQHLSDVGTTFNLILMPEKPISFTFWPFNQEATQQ
assay.remarks: H295R Steroid Biosynthesis Inhibition Assay - inhibition of pregnenolone (P) production catalyzed by CYP11A1 in NCI-H295R cells
Assay type: cell-based
condition.notes: 48 h, LC-MS/MS, read-out: Inh. of P IC50
pIC50: −log10 of the molar value.

# count of solved cases: 5
compound	pIC50
NC(=O)[C@H]1CC[C@H](c2cc3oc(CN4Cc5ccccc5C4)cc(=O)c3o2)CC1 [Compound 46]	≥ 7.40
CCNC(=O)N1CCC(c2cnc3cc(CN4Cc5ccccc5C4)ccc3n2)CC1 [Compound 116]	7.00 to 7.40
CS(=O)(=O)N1CCC(c2cnc3cc(CN4Cc5ccccc5C4)ccc3c2)CC1 [Compound 69]	≥ 7.40
CN(C)S(=O)(=O)N1CCC(c2cnc3cc(CN4Cc5ccccc5C4)ccc3n2)CC1 [Compound 99]	7.00 to 7.40
CS(=O)(=O)N1CC2(CC(c3cc4oc(CN5Cc6ccccc6C5)cc(=O)c4o3)C2)C1 [Compound 23]	≥ 7.40

Incoming: // fetch CYP11A1 (Homo sapiens) pIC50 for COc1ccc2c(c1)CN(Cc1ccc3nc(C4CCN(S(C)(=O)=O)CC4)ccc3c1)C2 [Compound 73]
Outgoing: ≥ 7.40

Incoming: Param readout = pIC50; param system = CYP11A1 (Homo sapiens); param query = O=C(c1nccs1)N1CCC(c2cnc3cc(CN4Cc5ccccc5C4)ccc3n2)CC1 [Compound 109] ; response: value
Outgoing: 7.00 to 7.40

Incoming: Any idea what pIC50 came out for CS(=O)(=O)N1C[C@@H]2[C@@H](COc3coc(CN4Cc5ccccc5C4)cc3=O)[C@@H]2C1 [Compound 1] on CYP11A1 (Homo sapiens)?
Outgoing: ≥ 7.40
